# Test system: DU-145 prostate
# Protocol: NCI-60 one-dose screen, 48 h
# Test Context: 10 µM unless noted
About 83,000 compounds went through this panel and 20% of them were active in at least one assay; those are over-represented in the sample as a whole. Activity calls are given as the source filed them. How the source made its calls: active means growth percent below 10; inactive means the rest.
Hi! Could you answer with just one of these? 1 (active), 0 (inactive)

Some solved cases for reference:
1) COc1ccc(-c2cc(/C=C/C(=O)c3ccc(N)cc3)[nH]n2)cc1; 0
2) O=c1[nH]c(=S)[nH]c2nc[nH]c12; 0
3) CCCCC(=O)OC1CCCCC1C (stereo unspecified); 0
4) O=C1c2ccccc2NC(c2cn(-c3ccccc3)nc2-c2cccnc2)N1Cc1ccccc1 (stereo unspecified); 0
5) C=C(C)[C@@H]1CC[C@]2(C(=O)O)CC[C@]3(C)[C@H](CC[C@@H]4[C@@]5(C)C/C(=C/c6cccc(I)c6)C(=O)C(C)(C)[C@@H]5CC[C@]43C)[C@@H]12; 0

[ask] Recorded test outcome, item COc1ccc2c(c1)c(-c1nc(-c3c[nH]c4ncccc34)cs1)cn2C
[reply] 0

[ask] Would you mind telling me which call this test gave Oc1ccc(CCC2CCCC(CCc3ccc(OCCF)cc3)N2)cc1 (stereo unspecified) ?
[reply] 0

[ask] Identify the outcome logged in this assay for the molecule shown: Nc1c(C(=O)Nc2cccc(Cl)c2)sc2ncc(Cl)cc12
[reply] 0

[ask] What is the recorded call for this molecule in the test? C[C@H]1[C@H]2C3=CC[C@@H]4[C@@]5(C)C/C(=C/c6ccco6)C(=O)C(C)(C)[C@@H]5CC[C@@]4(C)[C@]3(C)CC[C@@]2(C(=O)N2CCOCC2)CC[C@@H]1C
[reply] 0

[ask] Status in this test for Cc1cc(C)c(NC(=O)c2sc3nc4c(cc3c2N)CCCC4)c(C)c1 ?
[reply] 0

[ask] How was C=C(C)[C@@H]1CC[C@]2(C)[C@H](CC=C3[C@@H]4CC(C)(C)CC[C@]4(C=O)CC[C@]32C)[C@@]1(C)CCCN classified in this test?
[reply] 0

[ask] What classification did N#CCCCCCn1c2ccccc2c2c3c(c4c5ccccc5n(CCCCCC#N)c4c21)C(=O)N(O)C3=O end up with in this test?
[reply] 0

[ask] Tell me the assay call for Cn1cc(-c2csc(-c3cn(C(=O)OC(C)(C)C)c4ccccc34)n2)c2cccnc21 please.
[reply] 0

[ask] // outcome(item) with item = C=CC(=O)N[C@H](Cc1ccc(-c2cc(Cl)cc(Cl)c2)cc1)[C@H](O)[C@@H](O)C(=O)O
[reply] 0

---

# Test system: CCRF-CEM leukemia
# Protocol: NCI-60 one-dose screen, 48 h
# Test Context: 10 µM unless noted
About 83,000 compounds went through this panel and 20% of them were active in at least one assay; those are over-represented in the sample as a whole. Activity calls are given as the source filed them. Rule for the calls: active = growth percent below 10; inactive = the rest.
Your answer must be one of the following: True for active, False for inactive

Consider the worked cases shown below.
1. COc1cc(-c2c(C#N)c(-c3cccs3)nc3c2c(-c2ccccc2)nn3-c2ccccc2)ccc1O; False
2. CC1(C)C(=O)/C(=C\c2ccccn2)C[C@]2(C)[C@H]3CC[C@@H]4[C@@H](C(=O)/C=C/c5ccccn5)CC[C@@]4(C)[C@]3(C)CC[C@@H]12; True

[ask] Given O=C(/C=C/c1cccc2ccccc12)Nc1ncc(Cc2ccccc2)s1 , state the outcome it received in this test.
[reply] False

[ask] Hello, I am checking results. What call was entered for COc1ccc(/C=C(\C#N)c2cc3ccccc3n2S(C)(=O)=O)cc1 ?
[reply] False

[ask] Per the records of this test, what outcome belongs to COc1ccc2c(c1)c(-c1nc(-c3c[nH]c4ncccc34)cs1)cn2C ?
[reply] False
